Assay: Solubility study of Form A in buffers, water and biorelevant media (suspension shaken 24 hours at 25° C., filtrate by UPLC)
Type: physicochemical
Details: SGF without Triton-X100, 25 °C, simulated gastric fluid, thermodynamic from solid, SGF without Triton-X100, about 24 hours, individual replicate
result_type: solubility at 24 h

The value of solubility at 24 h measured for the compound Cc1cc(N2CC3CCC(C2)C3Nc2nc3n(n2)CCCC[C@H]3c2ccc(F)c(F)c2F)ncn1 (stereo partly shown) [Form A] turned out to be > 10000 µg/mL

====

Assay: Solubility study of Form A in buffers, water and biorelevant media (suspension shaken 24 hours at 25° C., filtrate by UPLC)
Type: physicochemical
Settings: water, 25 °C, thermodynamic from solid, about 24 hours, individual replicate
result_type: solubility at 24 h (µg/mL)
Hi! Could you send only the number? It should be in µg/mL, unit omitted.

The value of solubility at 24 h measured for the molecule Cc1cc(N2CC3CCC(C2)C3Nc2nc3n(n2)CCCC[C@H]3c2ccc(F)c(F)c2F)ncn1 (stereo partly shown) [Form A] turned out to be 7
